Data provenance is PubChem BioAssay (Tox21).

- measurement notes: A CellTox Green Cytotoxicity Assay to monitor cytotoxicity in HepG2 cells - 16 hour (AID 1224876); also: nearly all actives have a fitted effect of over 45% in size
- measurement setup: CellTox Green fluorescence; series mostly up to 76.8 µM
Results filed as inconclusive are left out. The source made the active and inactive calls. Calls follow the shape of the dose curve; as a rule, active = well fitted activation curve with a large enough effect in the repeat runs; inconclusive = weak or mixed curves; inactive = flat fitted curve, though single readings scatter.
Would you mind answering with one of these outcomes? active, inactive

Here are 4 compounds together with their reported answers.
compound=COC(=O)N(OC)c1ccccc1COc1ccn(-c2ccc(Cl)cc2)n1 discrete_label=inactive
compound="CCC(C)c1cccc(C(C)CC)c1O (stereo not drawn)" discrete_label=active
compound=C=CCOC(=O)c1ccccc1N discrete_label=inactive
compound="CC(C)c1c(CN(C)C(C)Cc2ccccc2)n(C)n(-c2ccccc2)c1=O (stereo not drawn)" discrete_label=inactive

Exercise: Answer briefly: the call reported for "CCOC(=O)CCN(SN(C)C(=O)Oc1cccc2c1OC(C)(C)C2)C(C)C" in this assay.
Solution: inactive

Exercise: And what about the compound "CCCCON=O" ?
Solution: inactive

Exercise: And what about the compound "CCN(CC)C(=O)N[C@@H]1C=C2c3cccc4[nH]cc(c34)C[C@@H]2N(C)C1" ?
Solution: inactive

Exercise: And what about the compound "CN=C=O" ?
Solution: inactive

Exercise: And what about the compound "CSC1=N[C@@](C)(c2ccccc2)C(=O)N1Nc1ccccc1" ?
Solution: inactive

Exercise: And what about the compound "CN" ?
Solution: inactive

Exercise: And what about the compound "COC(=O)c1cc(Oc2ccc(Cl)cc2Cl)ccc1[N+](=O)[O-]" ?
Solution: inactive

Exercise: And what about the compound "N#Cc1ccc(N(CC(N)=O)CC(F)(F)F)cc1C(F)(F)F" ?
Solution: inactive

Exercise: And what about the compound "CSSC" ?
Solution: inactive

* * *

- measurement notes: A CellTox Green Cytotoxicity Assay to monitor cytotoxicity in HEK293 cells - 8 hour (AID 1224884); also: nearly all actives have a fitted effect of over 35% in size
- measurement setup: CellTox Green fluorescence; series mostly up to 76.8 µM
Inconclusive results are not listed. Active and inactive are the calls of the source. Calls come from the whole dose curve; as a rule, active = well fitted activation curve with a large enough effect in the repeat runs; inconclusive = weak or mixed curves; inactive = flat fitted curve, though single readings scatter.
Would you mind answering with one of these outcomes? class 1 = active, class 0 = inactive

molecule=COCCC#N discrete_label="class 0"
molecule=Cc1nn(-c2cc(NS(C)(=O)=O)c(Cl)cc2Cl)c(=O)n1C(F)F discrete_label="class 0"
molecule=c1ccc(N=NNc2ccccc2)cc1 discrete_label="class 0"

Exercise: Answer briefly: the call reported for CCC(C)c1cccc(C(C)CC)c1O (stereo unspecified) in this assay.
Solution: class 0

Exercise: And what about the molecule "O=[N+]([O-])c1ccc(Cl)c(Cl)c1Cl" ?
Solution: class 0

Exercise: And what about the molecule "[Cl-].[Cl-].[Sn+2]" ?
Solution: class 0

* * *

- measurement notes: qHTS assay to identify small molecule antagonists of the progesterone receptor (PR) signaling pathway - cell viability counter screen (AID 1346798);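 also: HEK293T PR-UAS-bla cells stimulated with the agonist R5020; nearly all actives have a fitted effect of over 50% in size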
- measurement setup: PR-UAS-bla HEK293T viability, CellTiter-Glo luminescence, 16 h; series mostly up to 92.4 µM
Results filed as inconclusive are left out. The source made the active and inactive calls. Calls come from the whole dose curve; as a rule, active = well fitted cell-killing curve with a large enough effect in the repeat runs; inconclusive = weak or mixed curves, or effect the other way; inactive = no such curve, though single readings can be large or run the other way.
Would you mind answering with one of these outcomes? y for active, n for inactive

compound=Cc1cccc(Cc2cnc[nH]2)c1C discrete_label=n
compound=Clc1ccc(C(c2ccc(Cl)cc2)C(Cl)Cl)cc1 discrete_label=n
compound=O=[N+]([O-])c1cccc2cccc([N+](=O)[O-])c12 discrete_label=n
compound=N#Cc1c[nH]cc1-c1cccc2c1OC(F)(F)O2 discrete_label=n

Exercise: Answer briefly: the call reported for "[O]=[Cr](=[O])([OH])[O][Cr](=[O])(=[O])[OH]" in this assay.
Solution: n

Exercise: And what about the compound "CC(=O)[O-].CC(=O)[O-].CC(=O)[O-].[Cr+3]" ?
Solution: n

* * *

- measurement notes: Caspase-3/7 induction in CHO-K1 cells by small molecules, qHTS assay (AID 1346980); also: nearly all actives have a fitted effect of over 15% in size
- measurement setup: CHO-K1 caspase-3/7 induction, Caspase-Glo luminescence, 17 h; series mostly up to 92.4 µM
Calls of active or inactive are those of the source. Calls come from the whole dose curve; as a rule, active = well fitted activation curve with a large enough effect in the repeat runs; inconclusive = weak or mixed curves; inactive = flat fitted curve, though single readings scatter.
Would you mind answering with one of these outcomes? 1.0 = active, 0.0 = inactive

compound=Cc1c([N+](=O)[O-])cc2c(c1[N+](=O)[O-])C(C)(C)CC2(C)C discrete_label=0.0
compound=O=Cc1ccccc1 discrete_label=0.0
compound=CC(C)N(C(=O)CCl)c1ccccc1 discrete_label=0.0
compound=CCC[CH2][Sn]([CH2]CCC)([CH2]CCC)[O][Sn]([CH2]CCC)([CH2]CCC)[CH2]CCC discrete_label=1.0
compound=O=C(Cl)c1ccccc1F discrete_label=0.0

--- query ---
Exercise: Answer briefly: the call reported for C#CCC1=C(C)C(OC(=O)C2C(C=C(C)C)C2(C)C)CC1=O (stereo unspecified) in this assay.
Solution: 0.0

* * *

- measurement notes: qHTS RealTime-Glo MT Cell Viability Assay in HEK293 cells - 24 hour (AID 1224886); also: nearly all actives have a fitted effect of over 50% in size
- measurement setup: RealTime-Glo luminescence; series mostly up to 76.8 µM
- Description: National Center for Advancing Translational Sciences [NCATS] NIH Chemical Genomics Center [NCGC] U.S. Environmental Protection Agency [EPA] National Institutes of Environmental Health Sciences [NIEHS] National Toxicology Program [NTP] U.S. Food and Drug Administration [FDA] Measure of cell viability is critical in the cell-base assay. Analysis of cell viability is necessary for the characterization of cell responses to cytotoxic drugs and environmental stress. […]
Results filed as inconclusive are left out. Calls of active or inactive are those of the source. Calls come from the whole dose curve; as a rule, active = well fitted cell-killing curve with a large enough effect in the repeat runs; inconclusive = weak or mixed curves, or effect the other way; inactive = flat fitted curve, though single readings scatter.
Would you mind answering with one of these outcomes? active, inactive

Here are 5 molecules together with their reported answers.
molecule=C=C(C)C(=O)[O][Sn]([CH2]CCC)([CH2]CCC)[CH2]CCC discrete_label=active
molecule=O=S(=O)(O)F discrete_label=inactive
molecule="CC(C)NCC(O)c1ccccc1Cl (configuration not stated)" discrete_label=inactive
molecule=[O-][Cl+3]([O-])([O-])O discrete_label=inactive
molecule=S=C=NCCc1ccccc1 discrete_label=active

Exercise: Answer briefly: the call reported for FC(F)C(F)(F)OCC(Cn1cncn1)c1ccc(Cl)cc1Cl (configuration not stated) in this assay.
Solution: active

Exercise: And what about the molecule "CCCCON=O" ?
Solution: inactive

Exercise: And what about the molecule CC(C)=CC1C(C(=O)OC(C#N)c2cccc(Oc3ccccc3)c2)C1(C)C (configuration not stated) ?
Solution: inactive

Exercise: And what about the molecule "C#CC1(O)CCCCC1" ?
Solution: inactive

Exercise: And what about the molecule "O=[N+]([O-])c1ccccc1-c1ccccc1" ?
Solution: inactive

Exercise: And what about the molecule "Clc1cc(Cl)c(-c2cc(Cl)c(Cl)cc2Cl)cc1Cl" ?
Solution: inactive

* * *

- measurement notes: A CellTox Green Cytotoxicity Assay to monitor cytotoxicity in HepG2 cells - 16 hour (AID 1224876); also: nearly all actives have a fitted effect of over 45% in size
- measurement setup: CellTox Green fluorescence; series mostly up to 76.8 µM
Records with an inconclusive call do not appear. Activity calls are given as the source filed them. Calls follow the shape of the dose curve; as a rule, active = well fitted activation curve with a large enough effect in the repeat runs; inconclusive = weak or mixed curves; inactive = flat fitted curve, though single readings scatter.
Would you mind answering with one of these outcomes? active, inactive

Here are 10 molecules together with their reported answers.
molecule=O=[N+]([O-])c1cccc2cccc([N+](=O)[O-])c12 discrete_label=inactive
molecule=[O]=[Cr][O][Cr]=[O] discrete_label=inactive
molecule=Clc1ccc(C2(Cn3cncn3)OCCO2)c(Cl)c1 discrete_label=inactive
molecule="CN1CCc2cc3c(cc2C1O)OCO3 (centres undefined)" discrete_label=inactive
molecule="CC(O)C(=O)[O][Hg][c]1ccccc1 (centres undefined)" discrete_label=active
molecule=C[C@H]1[C@H](c2ccc(Cl)cc2)SC(=O)N1C(=O)NC1CCCCC1 discrete_label=inactive
molecule=CCOC(=O)Cc1ccccc1 discrete_label=inactive
molecule="CC(C)C(Br)C(=O)NC(N)=O (centres undefined)" discrete_label=inactive
molecule=CN(C)CCc1c[nH]c2ccccc12 discrete_label=inactive
molecule=O=Cc1ccccc1 discrete_label=inactive

Exercise: Answer briefly: the call reported for "CCC[CH2][Sn]([CH2]CCC)([O]C(C)=O)[O]C(C)=O" in this assay.
Solution: active

Exercise: And what about the molecule "c1ccc(Nc2ccc(Nc3ccccc3)cc2)cc1" ?
Solution: inactive

Exercise: And what about the molecule "[O-][Cl+3]([O-])([O-])O" ?
Solution: inactive

Exercise: And what about the molecule "COc1ccc2[nH]cc(CCN(C(C)C)C(C)C)c2c1" ?
Solution: inactive

* * *

- measurement notes: qHTS assay to identify small molecule antagonists of the sonic hedgehog signaling (Shh) pathway (AID 1259369); also: nearly all actives have a fitted effect of over 45% in size
- measurement setup: NIH/3T3 Gli1-Luc reporter, Shh antagonist, luminescence 24 h; series mostly up to 92.4 µM
Results filed as inconclusive are left out. The source made the active and inactive calls. The call rests on the fitted dose curve.
Would you mind answering with one of these outcomes? YES for active, NO for inactive

molecule=CC(=O)[O][Pb]([c]1ccccc1)([c]1ccccc1)[c]1ccccc1 discrete_label=YES

Exercise: Answer briefly: the call reported for "CC1CCCC1" in this assay.
Solution: NO

Exercise: And what about the molecule CCC(C)Br (stereo not drawn) ?
Solution: NO

Exercise: And what about the molecule CC[N+]1(CC)CCC(OC(=O)C(O)(c2ccccc2)c2ccccc2)C1 (stereo not drawn) ?
Solution: NO

Exercise: And what about the molecule "C[C@]12Cc3cn[nH]c3C[C@@H]1CC[C@@H]1[C@@H]2CC[C@@]2(C)[C@H]1CC[C@]2(C)O" ?
Solution: YES

Exercise: And what about the molecule "C=CC(=O)[O][Sn]([CH2]CCC)([CH2]CCC)[CH2]CCC" ?
Solution: YES

Exercise: And what about the molecule CCC1COC(Cn2cncn2)(c2ccc(Cl)cc2Cl)O1 (stereo not drawn) ?
Solution: YES

Exercise: And what about the molecule "N#Cc1sc2c(=O)c3ccccc3c(=O)c=2sc1C#N" ?
Solution: YES
